test: Volume of distribution in Sprague-Dawley rat at 1 mg/kg, iv by LC-MS/MS and HPLC method; assay type: ADME, organism-based; design: dose 1 mg/kg, route intravenous; settings: in vivo
METRIC NAME: Vd (L/kg)
Give your result in L/kg as a bare value.

# example entries with known answers
SMILES TEXT: Cc1c[nH]c2ncnc(-c3ccc(NC(=O)N(CCN)c4ccc(Cl)cc4)cc3)c12
METRIC NAME: Vd
OBSERVED MEASUREMENT: 4
//
SMILES TEXT: Cc1[nH]c2ncnc(-c3ccc(NC(=O)N(CCO)c4ccc(Cl)cc4)c(F)c3)c2c1C
METRIC NAME: Vd
OBSERVED MEASUREMENT: 0.5
//
SMILES TEXT: COc1ccc(N(CCN)C(=O)Nc2ccc(-c3ncnc4[nH]cc(C)c34)cc2)cc1
METRIC NAME: Vd
OBSERVED MEASUREMENT: 6
//
SMILES TEXT: Cc1c[nH]c2ncnc(-c3ccc(NC(=O)Nc4cccc(C(=O)NC(C)C)c4)cc3)c12
METRIC NAME: Vd
OBSERVED MEASUREMENT: 0.3
//
SMILES TEXT: Cc1c[nH]c2ncnc(-c3ccc(NC(=O)Nc4cccc(C(=O)NC(C)C)c4)c(F)c3)c12
METRIC NAME: Vd
OBSERVED MEASUREMENT: 0.7
//
SMILES TEXT: Cc1ccc(N(CCO)C(=O)Nc2ccc(-c3ncnc4[nH]cc(C)c34)cc2)cc1
METRIC NAME: Vd
OBSERVED MEASUREMENT: 0.3
//
SMILES TEXT: Cc1c[nH]c2ncnc(-c3ccc(NC(=O)N(CCN(C)C)c4ccc(Cl)cc4)cc3)c12
METRIC NAME: Vd
OBSERVED MEASUREMENT: 17.1
//
SMILES TEXT: COCCN(C(=O)Nc1ccc(-c2ncnc3[nH]c(C)c(C)c23)cc1F)c1ccc(Cl)cc1
METRIC NAME: Vd
OBSERVED MEASUREMENT: 1.2

As a next step, examine the compound that follows.
Give the measured Vd of `Cc1c[nH]c2ncnc(-c3ccc(NC(=O)Nc4ccccc4)cc3)c12` .
0.5

====

target: CYP2D6 (Homo sapiens, UniProt P10635); experiment: Inhibition of CYP2D6 (unknown origin) assessed as reduction in bufuralol hydroxylation to […] at 10 uM; type: ADME; details: probe bufuralol
Sequence (P10635 whole entry): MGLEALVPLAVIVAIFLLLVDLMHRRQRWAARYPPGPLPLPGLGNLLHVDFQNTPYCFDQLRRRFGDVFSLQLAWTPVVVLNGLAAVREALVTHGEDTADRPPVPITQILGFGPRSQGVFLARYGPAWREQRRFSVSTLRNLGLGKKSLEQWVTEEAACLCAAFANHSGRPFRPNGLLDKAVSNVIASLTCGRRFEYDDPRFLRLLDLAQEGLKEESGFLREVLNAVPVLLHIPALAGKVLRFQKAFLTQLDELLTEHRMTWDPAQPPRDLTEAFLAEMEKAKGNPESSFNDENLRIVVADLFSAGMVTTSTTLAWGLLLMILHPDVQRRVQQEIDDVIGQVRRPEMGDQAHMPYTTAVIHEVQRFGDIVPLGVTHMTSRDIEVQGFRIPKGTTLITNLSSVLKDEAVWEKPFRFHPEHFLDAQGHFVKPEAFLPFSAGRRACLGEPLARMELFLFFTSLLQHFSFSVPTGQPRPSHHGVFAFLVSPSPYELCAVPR
Examples of compounds with documented inhibition at 10 µM follow.
Give your result in % as a bare value.

SMILES TEXT: Cc1ccc(N(CCO)C(=O)Nc2ccc(-c3ncnc4[nH]cc(C)c34)cc2)cc1
inhibition at 10 µM [%]: -4
--
SMILES TEXT: Cc1c[nH]c2ncnc(-c3ccc(NC(=O)N(CCO)c4ccccc4Cl)cc3)c12
inhibition at 10 µM [%]: 1
--
SMILES TEXT: Cc1c[nH]c2ncnc(-c3ccc(NC(=O)N(CCO)c4cccc(Cl)c4)cc3)c12
inhibition at 10 µM [%]: 2
--
SMILES TEXT: Cc1c[nH]c2ncnc(-c3ccc(NC(=O)N(CCO)c4ccc(Cl)cc4)cc3)c12
inhibition at 10 µM [%]: 4
--
SMILES TEXT: Cc1c[nH]c2ncnc(-c3ccc(NC(=O)N(CCO)c4ccccc4)cc3)c12
inhibition at 10 µM [%]: 5
--
SMILES TEXT: COc1ccc(N(CCO)C(=O)Nc2ccc(-c3ncnc4[nH]cc(C)c34)cc2)cc1
inhibition at 10 µM [%]: -4

Give the measured inhibition at 10 µM of `Cc1c[nH]c2ncnc(-c3ccc(NC(=O)N(CCO)c4ccc(F)cc4)cc3)c12` .
3

Would you mind doing `COc1cccc(N(CCO)C(=O)Nc2ccc(-c3ncnc4[nH]cc(C)c34)cc2)c1` as well?
3

Would you mind doing `Cc1[nH]c2ncnc(-c3ccc(NC(=O)N(CCN(C)C)c4ccc(Cl)cc4)c(F)c3)c2c1C` as well?
20

Would you mind doing `Cc1[nH]c2ncnc(-c3ccc(NC(=O)N(CCO)c4ccc(Cl)cc4)c(F)c3)c2c1C` as well?
8

====

assay: Volume of distribution in Sprague-Dawley rat at 1 mg/kg, iv by LC-MS/MS and HPLC method; format: ADME, organism-based; design: dose 1 mg/kg, route intravenous; conditions: in vivo
Lab note: compare Vd against 0.5 L/kg. Equal or greater, write Fulfilled. Smaller, write Not fulfilled.

Completed entries (count: 2):
SMILES TEXT: COc1ccc(N(CCO)C(=O)Nc2ccc(-c3ncnc4[nH]cc(C)c34)cc2)cc1
ANSWER LABEL: Not fulfilled
--
SMILES TEXT: Cc1[nH]c2ncnc(-c3ccc(NC(=O)N(CCN(C)C)c4ccc(Cl)cc4)c(F)c3)c2c1C
ANSWER LABEL: Fulfilled

Hi team, for `Cc1c[nH]c2ncnc(-c3ccc(NC(=O)N(CCO)c4ccccc4)cc3)c12` , is the recorded Vd at or above 0.5 L/kg?
Not fulfilled

Would you mind doing `Cc1c[nH]c2ncnc(-c3ccc(NC(=O)N(CCO)c4ccccc4Cl)cc3)c12` as well?
Fulfilled

====

Examples of compounds with documented IC50 follow.
target: LIM domain kinase 1 (Rattus norvegicus, UniProt P53669); assay: Inhibition of Limk1 in rat A7r5 cells assessed as reduction in cofilin phosphorylation by Western blot method
Sequence (P53669 whole entry, the tested form may be a part): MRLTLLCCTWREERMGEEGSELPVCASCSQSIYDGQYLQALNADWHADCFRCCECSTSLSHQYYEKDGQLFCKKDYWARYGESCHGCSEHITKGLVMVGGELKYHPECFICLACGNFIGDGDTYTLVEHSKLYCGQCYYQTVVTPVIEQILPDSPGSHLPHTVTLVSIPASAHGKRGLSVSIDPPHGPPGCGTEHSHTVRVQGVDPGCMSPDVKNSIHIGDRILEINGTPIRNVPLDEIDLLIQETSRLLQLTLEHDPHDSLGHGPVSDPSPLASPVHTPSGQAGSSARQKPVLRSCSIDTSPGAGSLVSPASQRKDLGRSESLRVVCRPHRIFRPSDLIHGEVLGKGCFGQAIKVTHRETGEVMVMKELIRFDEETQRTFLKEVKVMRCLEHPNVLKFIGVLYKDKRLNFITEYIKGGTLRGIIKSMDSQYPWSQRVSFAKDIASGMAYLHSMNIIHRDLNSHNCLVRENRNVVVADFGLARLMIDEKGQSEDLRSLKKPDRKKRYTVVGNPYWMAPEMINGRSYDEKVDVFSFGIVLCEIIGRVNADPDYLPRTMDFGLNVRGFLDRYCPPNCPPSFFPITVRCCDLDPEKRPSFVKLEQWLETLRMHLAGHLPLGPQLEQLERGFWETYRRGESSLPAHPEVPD
The answer should read as a number with its unit following.

# example entries with known answers
SMILES TEXT: Cc1c[nH]c2ncnc(-c3ccc(NC(=O)N(CCO)c4ccccc4Cl)cc3)c12
OBSERVED MEASUREMENT: 420 nM
--
SMILES TEXT: Cc1c[nH]c2ncnc(-c3ccc(NC(=O)Nc4cccc(C(=O)NC(C)C)c4)c(F)c3)c12
OBSERVED MEASUREMENT: 4000 nM
--
SMILES TEXT: Cc1c[nH]c2ncnc(-c3ccc(NC(=O)N(CCO)c4cccc(Cl)c4)cc3)c12
OBSERVED MEASUREMENT: 372 nM
--
SMILES TEXT: Cc1[nH]c2ncnc(-c3ccc(NC(=O)N(CCN(C)C)c4ccc(Cl)cc4)c(F)c3)c2c1C
OBSERVED MEASUREMENT: 320 nM

Any idea what IC50 came out for `Cc1c[nH]c2ncnc(-c3ccc(NC(=O)N(CCO)c4ccc(Cl)cc4)cc3)c12` on LIM domain kinase 1 (Rattus norvegicus, UniProt P53669)?
118 nM

Would you mind doing `COCCN(C(=O)Nc1ccc(-c2ncnc3[nH]c(C)c(C)c23)cc1F)c1ccc(Cl)cc1` as well?
250 nM

====

molecular target: CYP2C9 (Homo sapiens, UniProt P11712); assay: Inhibition of CYP2C9 (unknown origin) assessed as reduction in tolbutamide hydroxylation to hydrocytolbutamide at 10 uM; format: ADME
Sequence (P11712 whole entry): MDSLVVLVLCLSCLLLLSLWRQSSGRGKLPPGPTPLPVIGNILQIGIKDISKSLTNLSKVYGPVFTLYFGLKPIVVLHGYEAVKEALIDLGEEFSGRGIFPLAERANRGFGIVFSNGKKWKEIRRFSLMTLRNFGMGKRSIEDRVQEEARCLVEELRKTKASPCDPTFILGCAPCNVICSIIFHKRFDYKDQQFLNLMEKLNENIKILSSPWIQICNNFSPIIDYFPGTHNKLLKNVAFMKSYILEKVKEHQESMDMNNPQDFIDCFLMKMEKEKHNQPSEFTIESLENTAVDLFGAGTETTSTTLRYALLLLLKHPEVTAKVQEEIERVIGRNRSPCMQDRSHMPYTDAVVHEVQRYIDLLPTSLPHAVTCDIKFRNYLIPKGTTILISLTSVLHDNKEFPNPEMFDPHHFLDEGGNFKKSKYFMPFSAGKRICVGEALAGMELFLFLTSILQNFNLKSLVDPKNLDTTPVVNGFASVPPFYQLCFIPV
METRIC NAME: inhibition at 10 µM (%)
Give your result in % as a bare value.

# example entries with known answers
SMILES TEXT: COc1ccc(N(CCO)C(=O)Nc2ccc(-c3ncnc4[nH]cc(C)c34)cc2)cc1
inhibition at 10 µM (%): 8

SMILES TEXT: Cc1[nH]c2ncnc(-c3ccc(NC(=O)N(CCN(C)C)c4ccc(Cl)cc4)c(F)c3)c2c1C
inhibition at 10 µM (%): -23

As a next step, examine the compound that follows.
Give the measured inhibition at 10 µM of `COCCN(C(=O)Nc1ccc(-c2ncnc3[nH]c(C)c(C)c23)cc1F)c1ccc(Cl)cc1` .
50

====

Examples of compounds with documented inhibition at 10 µM follow.
biological target: CYP3A4 (Homo sapiens, UniProt P08684); experiment: Inhibition of CYP3A4 (unknown origin) assessed as reduction in midazolam hydroxylation to 1'-Hydroxymidazolam at 10 uM; type: ADME; settings: probe midazolam
Sequence (P08684 whole entry): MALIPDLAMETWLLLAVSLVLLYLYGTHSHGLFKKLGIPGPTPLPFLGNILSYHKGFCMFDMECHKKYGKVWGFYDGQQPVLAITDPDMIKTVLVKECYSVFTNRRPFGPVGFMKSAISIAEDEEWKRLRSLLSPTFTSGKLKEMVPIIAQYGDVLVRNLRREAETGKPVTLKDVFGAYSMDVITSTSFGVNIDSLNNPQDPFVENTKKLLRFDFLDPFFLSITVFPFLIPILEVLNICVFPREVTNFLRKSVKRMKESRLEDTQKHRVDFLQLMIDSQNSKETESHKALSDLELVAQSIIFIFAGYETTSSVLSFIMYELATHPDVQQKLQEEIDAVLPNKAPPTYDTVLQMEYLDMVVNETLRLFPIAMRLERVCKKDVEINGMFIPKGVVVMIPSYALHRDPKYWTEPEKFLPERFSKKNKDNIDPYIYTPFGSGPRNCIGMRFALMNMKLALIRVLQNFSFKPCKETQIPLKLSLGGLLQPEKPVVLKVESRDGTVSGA
Give your result in % as a bare value.

# example entries with known answers
SMILES TEXT: Cc1ccc(N(CCO)C(=O)Nc2ccc(-c3ncnc4[nH]cc(C)c34)cc2)cc1
OBSERVED MEASUREMENT: 5
--
SMILES TEXT: COc1ccc(N(CCO)C(=O)Nc2ccc(-c3ncnc4[nH]cc(C)c34)cc2)cc1
OBSERVED MEASUREMENT: 2
--
SMILES TEXT: Cc1[nH]c2ncnc(-c3ccc(NC(=O)N(CCN)c4ccc(Cl)cc4)c(F)c3)c2c1C
OBSERVED MEASUREMENT: -11

Give the measured inhibition at 10 µM of `Cc1[nH]c2ncnc(-c3ccc(NC(=O)N(CCN(C)C)c4ccc(Cl)cc4)c(F)c3)c2c1C` .
-9

====

assay: Oral bioavailability in Sprague-Dawley rat at 2 mg/kg by LC-MS/MS and HPLC method; format: ADME, organism-based; details: in vivo
Examples of compounds with documented bioavailability follow.
The answer should read as a number with its unit following.

SMILES TEXT: Cc1ccc(N(CCO)C(=O)Nc2ccc(-c3ncnc4[nH]cc(C)c34)cc2)cc1
OBSERVED MEASUREMENT: 24%
--
SMILES TEXT: Cc1[nH]c2ncnc(-c3ccc(NC(=O)N(CCO)c4ccc(Cl)cc4)c(F)c3)c2c1C
OBSERVED MEASUREMENT: 29%
--
SMILES TEXT: Cc1c[nH]c2ncnc(-c3ccc(NC(=O)N(CCO)c4ccc(Cl)cc4)cc3)c12
OBSERVED MEASUREMENT: 20%
--
SMILES TEXT: COc1ccc(N(CCO)C(=O)Nc2ccc(-c3ncnc4[nH]cc(C)c34)cc2)cc1
OBSERVED MEASUREMENT: 24%
--
SMILES TEXT: COc1ccc(N(CCN)C(=O)Nc2ccc(-c3ncnc4[nH]cc(C)c34)cc2)cc1
OBSERVED MEASUREMENT: 0%

Give the measured bioavailability of `Cc1c[nH]c2ncnc(-c3ccc(NC(=O)N(CCN(C)C)c4ccc(Cl)cc4)cc3)c12` .
0%

Would you mind doing `Cc1c[nH]c2ncnc(-c3ccc(NC(=O)Nc4cccc(C(=O)NC(C)C)c4)cc3)c12` as well?
0%

Would you mind doing `Cc1c[nH]c2ncnc(-c3ccc(NC(=O)Nc4ccccc4)cc3)c12` as well?
16%

These entries and their values trace back to ChEMBL document CHEMBL3407489.
